Entry source: patent EP1099690A1

Tested on: IFNγ
Assay: Cytokine production inhibitory activity, Concanavalin A stimulated mononuclear cells, ELISA: IFNγ
Format: cell-based
Conditions: IFNγ in culture supernatant, human mononuclear cells, Concanavalin A 5 µg/ml, forty-eight hours
RESULT TYPE: pIC50
// pIC50: -log10(molar conc.)

[ask] Which value of pIC50 has been reported for CC(NC(=O)N1C(=O)C(Cc2ccccc2)C1Oc1ccc(C(=O)N2CCN(C)CC2)cc1)c1ccccc1 (stereo not shown) [Compound I-62] in the records?
[reply] 4.77

----------
Biological target: UniProt:P23946
Sequence (P23946 22-247): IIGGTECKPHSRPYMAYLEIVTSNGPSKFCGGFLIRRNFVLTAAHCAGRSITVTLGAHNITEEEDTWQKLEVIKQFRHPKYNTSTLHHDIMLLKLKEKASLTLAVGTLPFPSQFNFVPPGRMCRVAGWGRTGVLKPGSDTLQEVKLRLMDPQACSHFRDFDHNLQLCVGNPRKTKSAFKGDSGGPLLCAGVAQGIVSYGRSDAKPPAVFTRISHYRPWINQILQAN
Experiment: Chymase inhibitory activity (Suc-Ala-Ala-Pro-Phe-pNA substrate, absorption 405 nm)
Type: biochemical
Conditions: purified human chymase, 30 minutes at 37 °C preincubation, substrate 0.5 mM
Entries annotated with measured IC50
Write the number in nM without appending the unit.

Look over these answered cases.
>>> print(df.to_string())
                                   compound  result_type  observed
0  COc1ccccc1C[C@@H]1C(=O)N(C(=O)NC2(c3ccccc3)CC2)[C@H]1Oc1ccc(C(=O)O)cc1 [Compound I-125]         IC50        19
1  CC(NC(=O)N1C(=O)C(Cc2ccccc2)C1Oc1ccc(C(=O)N2CCN(C)CC2)cc1)c1ccccc1 (stereo not shown) [Compound I-62]         IC50      0.17
2  CCC1(Cc2ccccc2)C(=O)N(C(=O)NC(C)c2ccccc2)C1Oc1ccc(C(=O)O)cc1 (stereo not shown) [Compound I-172]         IC50       115

Now consider a different compound.
[ask] // map COc1ccccc1C[C@@H]1C(=O)N(C(=O)N[C@H](C)c2ccccc2)[C@H]1Oc1ccc(C(=O)O)cc1 [Compound I-102] to recorded IC50 (system: UniProt:P23946)
[reply] 1
